Protein target, amino acids: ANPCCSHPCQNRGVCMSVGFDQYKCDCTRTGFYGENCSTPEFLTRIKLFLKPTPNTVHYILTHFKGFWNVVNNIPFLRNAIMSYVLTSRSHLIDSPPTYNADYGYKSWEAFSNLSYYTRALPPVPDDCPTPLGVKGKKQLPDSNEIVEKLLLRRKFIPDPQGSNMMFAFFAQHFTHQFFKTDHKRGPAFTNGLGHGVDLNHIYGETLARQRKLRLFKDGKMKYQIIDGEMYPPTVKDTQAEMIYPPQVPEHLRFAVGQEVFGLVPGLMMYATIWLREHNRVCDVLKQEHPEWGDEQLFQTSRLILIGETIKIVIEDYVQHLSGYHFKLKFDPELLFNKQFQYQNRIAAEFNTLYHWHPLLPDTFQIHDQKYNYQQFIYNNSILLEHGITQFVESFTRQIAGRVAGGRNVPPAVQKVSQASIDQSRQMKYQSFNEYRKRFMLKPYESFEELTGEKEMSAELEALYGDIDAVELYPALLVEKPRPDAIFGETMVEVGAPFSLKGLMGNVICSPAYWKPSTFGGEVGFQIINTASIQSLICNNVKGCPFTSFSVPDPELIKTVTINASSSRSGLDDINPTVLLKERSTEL
measurement label: IC50 (nM)
Answer in nM, number only, no unit symbol.

Value of measured IC50 for the entry O=C(OCc1ccc(Cl)cc1)c1ccccc1NCc1ccc(Cl)cc1 : 410
